meta.source: ChEMBL document CHEMBL1153189

tested on: Plasmodium berghei; assay: Antimalarial activity against Plasmodium berghei infected in NMRI mice (Mus musculus) assessed as reduction in parasitaemia at 3 mg/kg, perorally administered for 3 days post infection; type: functional; parameters: scale not given: the % may be the effect or the level left; conditions: route oral
Each entry below carries its recorded Activity.

Would you please look over these solved cases?
Compound	Activity
Cc1ccc(S(=O)(=O)O)cc1.N[C@H]1CC[C@H](NC(=O)C(=O)NC[C@H]2CC[C@]3(CC2)OO[C@]2(O3)C3CC4CC(C3)CC2C4)CC1	>99.9%
C[C@H]1[C@H](OC(=O)CCC(=O)O)O[C@@H]2O[C@@]3(C)CC[C@H]4[C@H](C)CC[C@@H]1[C@@]24OO3 [ARTESUNATE]	70%
NC[C@H]1CC[C@]2(CC1)OOC1(O2)C2CC3CC(C2)CC1C3 (some centres undefined)	>99.9%

State its Activity on Plasmodium berghei: "Cc1ccc(S(=O)(=O)O)cc1.O=C(NC[C@H]1CC[C@]2(CC1)OO[C@]1(O2)C2CC3CC(C2)CC1C3)N1CCNCC1"
>99.9%

###

assay: Half life in Sprague-Dawley rat at 10 mg/kg, iv; format: ADME, organism-based; parameters: dose 10 mg/kg, route intravenous; conditions: Sprague-Dawley, in vivo
Property measured: half-life (min)
All answers are understood in min, so give the number only.

Name the reported half-life value associated with the compound "C[C@H]1[C@@H](O)O[C@@H]2O[C@@]3(C)CC[C@H]4[C@H](C)CC[C@@H]1[C@@]24OO3"
26

###

tested on: Plasmodium falciparum; assay: Antimalarial activity against chloroquine-resistant Plasmodium falciparum K1; format: functional, organism-based
Each entry below carries its recorded log10(IC50).
log10 IC50, ng/mL

CC(C)(N)C(=O)NC[C@H]1CC[C@]2(CC1)OO[C@]1(O2)C2CC3CC(C2)CC1C3 -0.30
CC(=O)NC[C@H]1CC[C@]2(CC1)OO[C@]1(O2)C2CC3CC(C2)CC1C3 -0.20
Cc1ccc(S(=O)(=O)O)cc1.O=C(CNCC1CC1)NC[C@H]1CC[C@]2(CC1)OO[C@]1(O2)C2CC3CC(C2)CC1C3 -0.44
NC1(C(=O)NC[C@H]2CC[C@]3(CC2)OO[C@]2(O3)C3CC4CC(C3)CC2C4)CCCCC1 -0.62
Cc1ccc(S(=O)(=O)O)cc1.O=C(CNC1CC1)NC[C@H]1CC[C@]2(CC1)OO[C@]1(O2)C2CC3CC(C2)CC1C3 -0.41
O=CNCC(=O)NC[C@H]1CC[C@]2(CC1)OO[C@]1(O2)C2CC3CC(C2)CC1C3 -0.05
CS(=O)(=O)O.O=C(NC[C@H]1CC[C@]2(CC1)OO[C@]1(O2)C2CC3CC(C2)CC1C3)C(=O)N1CCNCC1 -0.16
O=C(NC[C@H]1CC[C@]2(CC1)OO[C@]1(O2)C2CC3CC(C2)CC1C3)c1ccncc1 0.34
CN1CCN(C(=O)NC[C@H]2CC[C@]3(CC2)OO[C@]2(O3)C3CC4CC(C3)CC2C4)CC1 -0.70

Name the reported log10(IC50) value associated with the compound "Cc1ccc(S(=O)(=O)O)cc1.O=C(CN1CCS(=O)(=O)CC1)NC[C@H]1CC[C@]2(CC1)OO[C@]1(O2)C2CC3CC(C2)CC1C3"
0.66

###

molecular target: Cytochrome P450 2C19 (Homo sapiens)
Sequence (P33261 whole entry): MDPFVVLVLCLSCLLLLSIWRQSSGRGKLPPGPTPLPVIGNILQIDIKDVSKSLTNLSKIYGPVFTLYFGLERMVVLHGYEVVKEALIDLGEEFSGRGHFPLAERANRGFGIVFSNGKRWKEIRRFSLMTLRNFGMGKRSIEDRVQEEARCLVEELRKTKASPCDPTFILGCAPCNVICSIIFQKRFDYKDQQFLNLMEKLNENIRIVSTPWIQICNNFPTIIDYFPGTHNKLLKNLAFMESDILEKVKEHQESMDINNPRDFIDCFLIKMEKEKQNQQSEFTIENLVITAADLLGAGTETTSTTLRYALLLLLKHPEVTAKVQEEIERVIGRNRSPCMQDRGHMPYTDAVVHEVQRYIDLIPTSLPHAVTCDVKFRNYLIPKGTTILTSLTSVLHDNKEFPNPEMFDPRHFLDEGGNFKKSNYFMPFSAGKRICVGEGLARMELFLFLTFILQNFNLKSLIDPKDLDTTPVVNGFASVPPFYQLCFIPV
Property measured: IC50 (nM)
All answers are understood in nM, so give the number only.

State its IC50 on Cytochrome P450 2C19 (Homo sapiens): NC[C@H]1CC[C@]2(CC1)OOC1(O2)C2CC3CC(C2)CC1C3 (stereo partly specified)
110

###

Each entry below carries its recorded logD.
experiment: Lipophilicity, log D at pH 7.4; type: physicochemical; conditions: buffer
Answer using only a numeral; do not append any unit.

Molecule	logD
O=C(CN1CCOCC1)NC[C@H]1CC[C@]2(CC1)OO[C@]1(O2)C2CC3CC(C2)CC1C3.O=C(O)/C=C\C(=O)O	5
NC[C@H]1CC[C@]2(CC1)OOC1(O2)C2CC3CC(C2)CC1C3 (some centres undefined)	2.6
Cc1ccc(S(=O)(=O)O)cc1.O=C(CN1CCS(=O)(=O)CC1)NC[C@H]1CC[C@]2(CC1)OO[C@]1(O2)C2CC3CC(C2)CC1C3	4.5

--- query ---
Name the reported logD value associated with the molecule C[C@H]1[C@H](OC(=O)CCC(=O)O)O[C@@H]2O[C@@]3(C)CC[C@H]4[C@H](C)CC[C@@H]1[C@@]24OO3 [ARTESUNATE]
3.5

###

system: Plasmodium berghei; experiment: Antimalarial activity against Plasmodium berghei infected in NMRI mice (Mus musculus) assessed as cure rat at 3 mg/kg, perorally administered for 3 days post infection measured after 30 days; assay type: functional; conditions: route oral
Each entry below carries its recorded Activity.
All answers are understood in %, so give the number only.

Compound	Property measured	Numeric readout
Cc1ccc(S(=O)(=O)O)cc1.O=C(NC[C@H]1CC[C@]2(CC1)OO[C@]1(O2)C2CC3CC(C2)CC1C3)N1CCNCC1	Activity	40

Name the reported Activity value associated with the compound C[C@H]1[C@H](OC(=O)CCC(=O)O)O[C@@H]2O[C@@]3(C)CC[C@H]4[C@H](C)CC[C@@H]1[C@@]24OO3 [ARTESUNATE]
0

Would you mind doing "Cc1ccc(S(=O)(=O)O)cc1.NCCC(=O)NC[C@H]1CC[C@]2(CC1)OO[C@]1(O2)C2CC3CC(C2)CC1C3" as well?
0

###

test: Blood clearance in Sprague-Dawley rat at 10 mg/kg, iv; type: ADME, organism-based; set-up: dose 10 mg/kg, route intravenous; conditions: whole blood
Property measured: clearance (mL/min/kg)
All answers are understood in mL/min/kg, so give the number only.

Name the reported clearance value associated with the molecule C[C@H]1[C@@H](O)O[C@@H]2O[C@@]3(C)CC[C@H]4[C@H](C)CC[C@@H]1[C@@]24OO3 [ARTENIMOL]
72

###

test: Plasma concentration in rat at 100 mg/kg, po after 5 days; format: ADME, organism-based; design: dose 100 mg/kg, route oral
Property measured: concentration at 120 h (ng/mL)
All answers are understood in ng/mL, so give the number only.

Name the reported concentration at 120 h value associated with the compound "Cc1ccc(S(=O)(=O)O)cc1.N[C@H]1CC[C@H](NC(=O)C(=O)NC[C@H]2CC[C@]3(CC2)OO[C@]2(O3)C3CC4CC(C3)CC2C4)CC1"
3700

###

tested on: Plasmodium falciparum; test: Antimalarial activity against chloroquine-resistant Plasmodium falciparum K1; assay type: functional, organism-based
Property measured: IC50 (ng/mL)
All answers are understood in ng/mL, so give the number only.

Would you please look over these solved cases?
O=C(NC[C@H]1CC[C@]2(CC1)OO[C@]1(O2)C2CC3CC(C2)CC1C3)c1cccnc1 0.97
O=C(O)C(=O)NC[C@H]1CC[C@]2(CC1)OO[C@]1(O2)C2CC3CC(C2)CC1C3 58
CS(=O)(=O)O.NCC(=O)NC[C@H]1CC[C@]2(CC1)OO[C@]1(O2)C2CC3CC(C2)CC1C3 0.36

Name the reported IC50 value associated with the compound "Cc1ccc(S(=O)(=O)O)cc1.O=C(NC[C@H]1CC[C@]2(CC1)OO[C@]1(O2)C2CC3CC(C2)CC1C3)N1CCNCC1"
0.43

Would you mind doing "NC(=O)C(=O)NC[C@H]1CC[C@]2(CC1)OO[C@]1(O2)C2CC3CC(C2)CC1C3" as well?
0.44

Would you mind doing "O=C(O)CCC(=O)NC[C@H]1CC[C@]2(CC1)OO[C@]1(O2)C2CC3CC(C2)CC1C3" as well?
71

Would you mind doing "O=C1CNC(=O)N1C[C@H]1CC[C@]2(CC1)OO[C@]1(O2)C2CC3CC(C2)CC1C3" as well?
1

Would you mind doing "CC(C)(N)CNC(=O)C(=O)NC[C@H]1CC[C@]2(CC1)OO[C@]1(O2)C2CC3CC(C2)CC1C3.CS(=O)(=O)O" as well?
0.4

Would you mind doing "CS(=O)(=O)O.O=C(NC[C@H]1CC[C@]2(CC1)OO[C@]1(O2)C2CC3CC(C2)CC1C3)c1c[nH]cn1" as well?
0.84

Would you mind doing "Cc1ccc(S(=O)(=O)O)cc1.N[C@H]1CC[C@H](NC(=O)C(=O)NC[C@H]2CC[C@]3(CC2)OO[C@]2(O3)C3CC4CC(C3)CC2C4)CC1" as well?
0.7

Would you mind doing "NC1(C(=O)NC[C@H]2CC[C@]3(CC2)OO[C@]2(O3)C3CC4CC(C3)CC2C4)CCCC1" as well?
0.33

Would you mind doing "O=C(CN1CCOCC1)NC[C@H]1CC[C@]2(CC1)OO[C@]1(O2)C2CC3CC(C2)CC1C3.O=C(O)/C=C\C(=O)O" as well?
0.88

Would you mind doing "NC(=O)NC[C@H]1CC[C@]2(CC1)OO[C@]1(O2)C2CC3CC(C2)CC1C3" as well?
0.56

Would you mind doing "Cc1ccc(S(=O)(=O)O)cc1.Cc1ccc(S(=O)(=O)O)cc1.O=C(CN1CCNCC1)NC[C@H]1CC[C@]2(CC1)OO[C@]1(O2)C2CC3CC(C2)CC1C3" as well?
0.59

Would you mind doing "CN(C)C(=O)NC[C@H]1CC[C@]2(CC1)OO[C@]1(O2)C2CC3CC(C2)CC1C3" as well?
1.1

Would you mind doing "CS(=O)(=O)O.O=C(NC[C@H]1CC[C@]2(CC1)OO[C@]1(O2)C2CC3CC(C2)CC1C3)C(=O)NC1CCNCC1" as well?
0.56
